- System: 317291-083-R-J1-PDC complex spheroids, viability;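 also: spheroids exposed to compounds for one week before readout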
- assay_overview: Anticancer human tumor 317291-083-R-J1-PDC patient-derived soft tissue sarcoma cell line growth inhibition [GQUAD]
- stated_conditions: curve of first compound; second compound 10 µM
Kindly supply the reported IC50 values for the records listed here.

Would you please look over these solved cases?
{"compound": "CCc1c2c(nc3ccc(O)cc13)-c1cc3c(c(=O)n1C2)COC(=O)[C@]3(O)CC + CN(C)c1ccc(Nc2c3ccc(NC(=O)CCN4CCCC4)cc3nc3cc(NC(=O)CCN4CCCC4)ccc23)cc1", "IC50": "< 0.999 nM"}
{"compound": "C#Cc1c(F)ccc2cc(O)cc(-c3ncc4c(N5CC6CCC(C5)N6)nc(OCC56CCCN5CC(F)C6)nc4c3F)c12 (stereo not drawn) + CN(C)c1ccc(Nc2c3ccc(NC(=O)CCN4CCCC4)cc3nc3cc(NC(=O)CCN4CCCC4)ccc23)cc1", "IC50": "< 31.6 nM"}

Lab note: next compound to report on.
[ask] Find the recorded IC50 belonging to C=CC(=O)N1CCN(c2nc(=O)n(-c3c(C)ccnc3C(C)C)c3nc(-c4c(O)cccc4F)c(F)cc23)C(C)C1 (stereo not drawn) + CN(C)c1ccc(Nc2c3ccc(NC(=O)CCN4CCCC4)cc3nc3cc(NC(=O)CCN4CCCC4)ccc23)cc1 and report it.
[reply] < 31.6 nM
